Molecular target: Coagulation factor X (Homo sapiens, UniProt P00742)
Sequence (P00742 41-179 limits assumed): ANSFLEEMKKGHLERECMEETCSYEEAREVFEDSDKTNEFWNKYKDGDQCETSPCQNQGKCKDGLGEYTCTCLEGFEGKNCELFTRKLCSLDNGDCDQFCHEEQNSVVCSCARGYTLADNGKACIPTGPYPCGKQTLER
Sequence (P00742 235-488 limits assumed): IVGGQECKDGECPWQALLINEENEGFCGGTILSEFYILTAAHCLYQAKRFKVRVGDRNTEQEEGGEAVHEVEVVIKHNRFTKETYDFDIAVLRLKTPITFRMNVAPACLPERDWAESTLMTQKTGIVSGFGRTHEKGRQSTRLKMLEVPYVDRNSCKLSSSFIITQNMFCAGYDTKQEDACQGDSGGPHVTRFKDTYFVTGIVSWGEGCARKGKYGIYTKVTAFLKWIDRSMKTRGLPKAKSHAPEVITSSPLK
Rule: Ki below 100 nM gives t, anything at or above gives f.

Example entries and their recorded answers appear below.
smiles data: N=C(N)c1ccc(Oc2cc(Oc3ccc(C(=N)N)cc3)c(Cl)cc2Cl)cc1
class label: f
//
smiles data: N=C(N)c1cccc(Oc2ccc(C(N)=O)c(Oc3cccc(C(=N)N)c3)n2)c1
class label: f
//
smiles data: CN(C)C(=O)c1ccc(Oc2cccc(C(=N)N)c2)nc1Oc1cccc(C(=N)N)c1
class label: t
//
smiles data: N=C(N)c1ccc(/C=C2\CCCC/C(=C\c3ccc(C(=N)N)cc3)C2=O)cc1
class label: t
//
smiles data: N=C(N)c1cccc(Oc2ccc(NC(=O)Nc3ccccc3)c(Oc3cccc(C(=N)N)c3)n2)c1
class label: t

Quick check: Ki of `N=C(N)c1ccc(Oc2cccc(Oc3ccccc3C(=N)N)n2)cc1` under 100 nM?
f

Field: below-cutoff. Rule: recorded Ki strictly less than 100 nM. Subject: `CNC(=O)c1cc(Oc2cccc(C(=N)N)c2)nc(Oc2cccc(C(=N)N)c2)c1`
t

Problem: For the molecule `CNC(=O)c1ccc(Oc2cccc(C(=N)N)c2)nc1Oc1cccc(C(=N)N)c1` , is Ki under 100 nM?
f

Would you kindly verify if Ki of `COc1c(F)c(Oc2cccc(C(=N)N)c2)nc(Oc2cccc(C(=N)N)c2)c1F` is strictly less than 100 nM?
t

Here's an entry: `N=C(N)c1cccc(Oc2ccnc(Oc3cccc(C(=N)N)c3)n2)c1` . Is its Ki below 100 nM?
f

hey, is Ki for `CCOC(=O)c1ccc(Oc2cccc(C(=N)N)c2)nc1Oc1cccc(C(=N)N)c1` lower than 100 nM or not?
f

For `N=C(N)c1cccc(Oc2cc(Oc3ccccc3C(=N)N)ccc2N)c1` , is the recorded Ki below the cut-off of 100 nM?
f

----------
pKi: −log10 of the molar value.
// Prothrombin (Homo sapiens) pKi records

For orientation, consider the following solved cases.
smiles data: CCOC(=O)c1cc(Oc2cccc(C(=N)N)c2)nc(Oc2cccc(C(=N)N)c2)c1
system name: Prothrombin (Homo sapiens)
reported: 4.96

smiles data: N=C(N)c1cccc(Oc2c[nH]c(=O)c(Oc3cccc(C(=N)N)c3)n2)c1
system name: Prothrombin (Homo sapiens)
reported: < 5.30

smiles data: CN(C)C(=O)c1ccc(Oc2cccc(C(=N)N)c2)nc1Oc1cccc(C(=N)N)c1
system name: Prothrombin (Homo sapiens)
reported: < 5.30

Field: pKi. Fill in for each record below.
1. N=C(N)c1cccc(Oc2ccc(NC(=O)NCC(N)=O)c(Oc3cccc(C(=N)N)c3)n2)c1
2. Cc1c(F)c(Nc2cccc(C(=N)N)c2)nc(Oc2cccc(C(=N)N)c2)c1F
3. CC(=O)Nc1ccc(Oc2cccc(C(=N)N)c2)nc1Oc1cccc(C(=N)N)c1

1: < 5.30; 2: < 5.30; 3: < 5.30
